study target: human MC1R (Homo sapiens, UniProt Q01726)
Construct: expressed in transfected cells; host or cells: HEK-293 cells stably expressing hMC1R and the GScAMP22F cAMP sensor
Sequence (Q01726 whole entry): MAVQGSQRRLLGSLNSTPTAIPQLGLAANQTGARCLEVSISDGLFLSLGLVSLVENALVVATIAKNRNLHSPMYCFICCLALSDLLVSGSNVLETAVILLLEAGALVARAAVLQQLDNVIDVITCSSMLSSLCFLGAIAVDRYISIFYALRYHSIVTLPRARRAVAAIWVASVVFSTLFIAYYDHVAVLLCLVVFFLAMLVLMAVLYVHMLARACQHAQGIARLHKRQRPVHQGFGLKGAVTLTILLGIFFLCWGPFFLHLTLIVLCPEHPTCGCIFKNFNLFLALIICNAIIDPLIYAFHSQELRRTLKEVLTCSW
experimental details: split-luciferase cAMP sensor assay, agonist mode, hMC1R
Type: cell-based
cond: MC4R versus MC1R
Positions of bridges follow the written chain, without caps; N, C: chain ends. Non-standard residues stand in square brackets, D forms with d. Residues, ends and D or L forms follow the SMILES beside them. Aib = CC(C)(N)C(=O)O
Mark Condition met only when MC4R selectivity vs MC1R stays strictly below 1. Values equal to the cut-off are Condition not met.

Input line: Determine whether this molecule shows MC4R selectivity vs MC1R lower than 1 (ties excluded): CC(=O)N[C@@H](CCCNC(=N)N)C(=O)N[C@H]1CSSC[C@@H](C(N)=O)NC(=O)[C@H](Cc2ccccc2)NC(=O)[C@H](CCCNC(=N)N)NC(=O)[C@@H](Cc2ccccc2)NC(=O)[C@H](CCCNC(=N)N)NC(=O)C(C)(C)NC1=O [CTX-1601, Arg-cyclo(Cys-Aib-Arg-D-Phe-Arg-Phe-Cys)] (Ac-RC[Aib]R[dF]RFC-NH2; disulfide 2-8)
Output line: Condition met

Input line: Determine whether this molecule shows MC4R selectivity vs MC1R lower than 1 (ties excluded): CC1(C)NC(=O)CSC[C@@H](C(N)=O)NC(=O)[C@H](Cc2ccccc2)NC(=O)[C@H](CCCNC(=N)N)NC(=O)[C@@H](Cc2ccccc2)NC(=O)[C@H](Cc2c[nH]cn2)NC1=O [CTX-1650] ({CH2CO}-[Aib]H[dF]RFC-NH2; thioether N-6)
Output line: Condition met

Input line: Determine whether this molecule shows MC4R selectivity vs MC1R lower than 1 (ties excluded): CC(=O)N[C@H]1CSSC[C@@H](C(N)=O)NC(=O)[C@H](Cc2c[nH]c3ccccc23)NC(=O)[C@H](CCCNC(=N)N)NC(=O)[C@@H](Cc2ccccc2)NC(=O)[C@H](Cc2c[nH]cn2)NC(=O)C(C)(C)NC1=O
Output line: Condition not met

Input line: Determine whether this molecule shows MC4R selectivity vs MC1R lower than 1 (ties excluded): CC(=O)N[C@@H](CCCNC(=N)N)C(=O)N[C@H]1CSSC[C@@H](C(N)=O)NC(=O)[C@H](Cc2c[nH]c3ccccc23)NC(=O)[C@H](CCCNC(=N)N)NC(=O)[C@@H](Cc2ccccc2)NC(=O)[C@H](CCCNC(=N)N)NC(=O)[C@@H](C)NC1=O [CTX-1211] (Ac-RC[dA]R[dF]RWC-NH2; disulfide 2-8 (inferred))
Output line: Condition not met

Input line: Determine whether this molecule shows MC4R selectivity vs MC1R lower than 1 (ties excluded): N=C(N)NCCC[C@@H]1NC(=O)CNC(=O)CSC[C@@H](C(N)=O)NC(=O)[C@H](Cc2c[nH]c3ccccc23)NC(=O)[C@H](CCCNC(=N)N)NC(=O)[C@@H](Cc2ccccc2)NC1=O [CTX-1645] ({CH2CO}-GR[dF]RWC-NH2; thioether N-6)
Output line: Condition not met

Input line: Determine whether this molecule shows MC4R selectivity vs MC1R lower than 1 (ties excluded): C[C@H]1NC(=O)CSC[C@@H](C(N)=O)NC(=O)[C@H](Cc2ccccc2)NC(=O)[C@H](CCCNC(=N)N)NC(=O)[C@@H](Cc2ccccc2)NC(=O)[C@H](CCCNC(=N)N)NC1=O [CTX-1657] ({CH2CO}-[dA]R[dF]RFC-NH2; thioether N-6)
Output line: Condition not met

Input line: Determine whether this molecule shows MC4R selectivity vs MC1R lower than 1 (ties excluded): CC1(C)NC(=O)CSC[C@@H](C(N)=O)NC(=O)[C@H](Cc2c[nH]c3ccccc23)NC(=O)[C@H](CCCNC(=N)N)NC(=O)[C@@H](Cc2ccccc2)NC(=O)[C@H](Cc2c[nH]cn2)NC1=O
Output line: Condition not met
